Tested on: SK-MEL-5 melanoma
Assay: NCI-60 one-dose screen, 48 h
Conditions: 10 µM unless noted
About 83,000 compounds went through this panel and 20% of them were active in at least one assay; those are over-represented in the sample as a whole. Activity calls are given as the source filed them. Rule for the calls: active = growth percent below 10; inactive = the rest.
Give your call using only these classes: active, inactive

COMPOUND | CATEGORY_LABEL
CCCCOCCOP(=O)(OCCOCCCC)OCCOCCCC | inactive
CC[C@H](C)[C@H](NC(=O)CN(C)C)C(=O)N(C)[C@H](C[C@@H](OC(C)=O)c1nc(C(=O)NC23CC(C(=O)OC)(C2)C3)cs1)C(C)C | inactive
COc1ccc2c(c1)c(-c1nc(-c3c[nH]c4ncccc34)cs1)cn2CCCCN1CCOCC1 | inactive
CC[C@H](C)[C@H](NC(=O)[C@H]1CCCCN1C)C(=O)N(C)[C@H](C[C@@H](OC(C)=O)c1nc(C(=O)NC23C4C5C2C2C3C4C52C(=O)OC)cs1)C(C)C (stereo partly specified) | active
C[C@H](O)CCC(=O)c1ccoc1 | inactive

# evaluate next
Assay outcome for Nc1nc(=S)nc(N)[nH]1 : what was it? inactive

----------
Test system: A498 renal
Test: NCI-60 one-dose screen, 48 h (100 = growth as untreated, 0 = no growth, -100 = all killed)
Settings: 10 µM unless noted
Compounds without any hit were thinned out: in the full panel of roughly 83,000, 20% have a hit. Active and inactive are the calls of the source. Rule for the calls: active = growth percent below 10; inactive = the rest.
ENDPOINT_NAME: growth

These solved cases illustrate the format of a correct answer.
MOLECULE | growth
OCCNC1CCCCC1 | 93.4% (inactive)
COc1cc(-c2ccc(N)c(OC)c2)ccc1N | 118% (inactive)
CC[C@@H](C)C(=O)O[C@H]1[C@H](O)[C@H]2[C@@H](CN3C[C@@H](C)CC[C@H]3[C@@]2(C)O)[C@@H]2C[C@]34O[C@]5(O)[C@@H](OC(=O)[C@@](C)(O)CC)CC[C@@]3(C)[C@@H]5[C@@H](OC(C)=O)[C@@H](OC(C)=O)[C@H]4[C@@]21O | 102% (inactive)
C[C@@]12CCCc3coc(c31)C(=O)c1cc3c(cc12)C(=O)C1=C(NCCS1(=O)=O)C3=O | 35.3% (inactive)
CCN(CC)CCn1c(=O)n(C)c2ccccc21 | 104% (inactive)

Give growth for each of the items listed below.
1. O=C1NC(=O)C(=C/C=C/c2ccccc2)C(=O)N1
2. C[N+]12CCC34C5=CC(=O)C(=O)C=C5[N+]5(C)C(=O)CC6OCC=C(C1)C(CC32)C6C45 (configuration not stated)
3. CN1[C@@H](CC(=O)c2ccccc2)CCC[C@H]1CC(=O)c1ccccc1
4. C/C(=C\c1ccn(-c2ccc(N)cc2F)n1)[C@@H]1C[C@@H]2O[C@]2(C)CCC[C@H](C)[C@H](O)[C@@H](C)C(=O)C(C)(C)[C@@H](O)CC(=O)O1

106% (inactive)
126% (inactive)
115% (inactive)
0.324% (active)

Give growth for each of the items listed below.
1. O=S1(=O)OCCO1
2. O=[N+]([O-])c1ccc(CI)cc1
3. O=NN(c1ccccc1)c1ccccc1

["99% (inactive)", "95.7% (inactive)", "101% (inactive)"]

----------
System: DU-145 prostate
Test: NCI-60 one-dose screen, 48 h (100 = growth as untreated, 0 = no growth, -100 = all killed)
Conditions: 10 µM unless noted
This is part of a sample that, as a whole, favours compounds with a hit. Of some 83,000 tested, about 20% had one in any assay.
ENDPOINT_NAME: growth (%)
One number for each entry, in %.

MOLECULE | growth, %
CNC(=O)CCl | 114
C[C@]12CCC(=O)C[C@@H]1CC[C@@H]1[C@@H]2CC[C@]2(C)[C@@H](OC(=O)N(CCCl)N=O)CC[C@@H]12 | -53.4
Cc1cc(C(C)(C)C)ccc1O | 104
C[C@]12CC[C@H]3[C@@H](C[C@@H]4SC(Nc5cccc(F)c5)=N[C@@]45CC(=O)CC[C@]35C)[C@@H]1CCC2=O | 17.2
CC1=C2[C@H]3OC(=O)[C@@H](C)[C@@H]3CC[C@@]2(C)C=CC1=O | 109
CCCN1C(=O)NC(=O)C(CC)(N2C(=O)c3c(F)c(F)c(F)c(F)c3C2=O)C1=O (centres undefined) | -98.9
O=C(Cc1ccccc1)c1ccccc1 | 105
O=C(Cc1ccccc1)NC(O)C(Cl)(Cl)Cl (centres undefined) | 118

Entry CC1(C)N(Nc2ccccc2)C(=O)C2CCCN21 (centres undefined) — recorded growth = 16.8
